- experimental_details: gradient 5% acetonitrile 3 min, to 50% in 2 min, to 85% in 15 min, held 3 min, 100 µL/min
- measurement_conditions: column: Zorbax Extend-C18 2.1 x 50 mm; eluents: water / acetonitrile, 0.1% formic acid
metric_name: RP-LC retention time (s)

{"compound": "CCOC(=O)C1=C(CN2CCN(c3ccccn3)CC2)NC(=O)NC1c1ccc(Cl)cc1 (centres undefined)", "unit_name": "s", "RP-LC retention time": 643}
{"compound": "CC(=O)N1CCC(C(=O)NC2CCCN(c3cc(-c4ccc(Cl)cc4)[nH]n3)C2)CC1 (centres undefined)", "unit_name": "s", "RP-LC retention time": 655}
{"compound": "COc1ccc(S(=O)(=O)N2CCc3c(c(CN(C(C)=O)c4ccccc4)nn3C)C2)cc1Cl", "unit_name": "s", "RP-LC retention time": 846}
{"compound": "C[C@H]1CC2C3CCC4=CC(=O)C=C[C@]4(C)[C@@]3(Cl)[C@@H](O)C[C@]2(C)[C@@]1(O)C(=O)CO (some centres undefined)", "unit_name": "s", "RP-LC retention time": 832}
{"compound": "Cc1cc(C)cc(N2CCC(NC(=O)Nc3ccccc3Cl)C2=O)c1 (centres undefined)", "unit_name": "s", "RP-LC retention time": 936}
{"compound": "CCn1c(CC2C(=O)Nc3ccc(Br)cc32)nc2ccccc2c1=O (centres undefined)", "unit_name": "s", "RP-LC retention time": 825}
{"compound": "CCOC(=O)c1noc2nc(C)nc(Nc3ccc(C)cc3)c12", "unit_name": "s", "RP-LC retention time": 936}
{"compound": "CC(=O)N1CCc2sc(C(=O)NCc3ccccc3Br)cc2C1", "unit_name": "s", "RP-LC retention time": 770}
{"compound": "COc1cc2c(=O)c(C(=O)c3ccncc3)cn(CC(=O)Nc3ccc(F)cc3F)c2cc1Cl", "unit_name": "s", "RP-LC retention time": 711}

###

- experimental_details: gradient 5% acetonitrile 3 min, to 50% in 2 min, to 85% in 15 min, held 3 min, 100 µL/min
- measurement_conditions: column: Zorbax Extend-C18 2.1 x 50 mm; eluents: water / acetonitrile, 0.1% formic acid
metric_name: RP-LC retention time (s)

Example cases with answers are listed next.
{"compound": "COc1cccc(Nc2c(C(N)=O)cnc3c(C)cc(S(=O)(=O)c4cccc(C(=O)N(C)C)c4)cc23)c1", "RP-LC retention time / s": 683}
{"compound": "Cc1ccc(NC(=O)C2CCN(C(=O)C3Sc4ccccc4NC3=O)CC2)cc1C (centres undefined)", "RP-LC retention time / s": 818}
{"compound": "CCN1CCN(C(=O)Nc2cccc(C(=O)OC)c2)c2cccnc21", "RP-LC retention time / s": 612}
{"compound": "COc1cccc(N2CCN(S(=O)(=O)c3cc(-c4cc(C(F)(F)F)on4)sc3C)CC2)c1", "RP-LC retention time / s": 1260}

(P) Cc1ccc(N2CCN(C(=O)c3cn4c(n3)CCCC4)CC2)cc1
(Q) Cc1cc(C)cc(-n2ccnc(NC(=O)Nc3ccc(C)c(F)c3)c2=O)c1
Request: // max by RP-LC retention time over [ P , Q ] Pick one and reply with its label.
Response: Q

(P) CCSc1nc2nc3c(cn2n1)C(=O)CCC3
(Q) O=C(Nc1cccc(F)c1)C1CCN(S(=O)(=O)c2cc(-c3noc(C4CCC4)n3)cs2)CC1
Request: // compare measured RP-LC retention time, left P , right Q , return larger Kindly state the label of the option you pick.
Response: Q
(Q: 1110 s, P: 723 s)

(I) CC(=O)Nc1ccc(NC(=O)CN2C(=O)C3CCCCN3C(=O)c3ccccc32)cc1 (centres undefined)
(II) COc1ccc(C2C(=O)N(CCc3ccccc3)CC(=O)N2Cc2ccc3c(c2)OCO3)cc1 (centres undefined)
Request: Which entry shows the lesser value of RP-LC retention time here, I or II ? Bench note: the answer is the label of the chosen record.
Response: I

(a) CCN(CC)C(=O)c1c(C)sc2ccn(CC)c(=O)c12
(b) CCc1noc(C2(NC(=O)c3ccc(Br)cc3)CCCCC2)n1
Request: Kindly identify the item with the lower RP-LC retention time figure among these two: a and b Identify your pick by its label.
Response: a

(I) CCOc1ccc(CNC(=O)c2cc(-c3ccncc3)cn2C)cc1
(II) Cc1cc(NC(=O)NCC(=O)N2CCc3ccccc32)ccc1Br
Request: Between item I and item II , which reported RP-LC retention time is smaller? Respond with the label that goes with your answer.
Response: I

(I) Cn1nc(C(=O)N2C[C@@H]3C[C@H](NC(=O)c4ccccc4)[C@H]2C3)c2ccccc21
(II) CCN1C(=O)COc2ccc(-c3noc(-c4ccccc4C)n3)cc21
Request: For this pair, I and II , which shows a numerically higher RP-LC retention time? Please identify the chosen entry by its label.
Response: II
